pIC50: −log10 of the molar value.
UTX (KDM6A) (Homo sapiens) pIC50 data
Sequence (O15550 919-1401): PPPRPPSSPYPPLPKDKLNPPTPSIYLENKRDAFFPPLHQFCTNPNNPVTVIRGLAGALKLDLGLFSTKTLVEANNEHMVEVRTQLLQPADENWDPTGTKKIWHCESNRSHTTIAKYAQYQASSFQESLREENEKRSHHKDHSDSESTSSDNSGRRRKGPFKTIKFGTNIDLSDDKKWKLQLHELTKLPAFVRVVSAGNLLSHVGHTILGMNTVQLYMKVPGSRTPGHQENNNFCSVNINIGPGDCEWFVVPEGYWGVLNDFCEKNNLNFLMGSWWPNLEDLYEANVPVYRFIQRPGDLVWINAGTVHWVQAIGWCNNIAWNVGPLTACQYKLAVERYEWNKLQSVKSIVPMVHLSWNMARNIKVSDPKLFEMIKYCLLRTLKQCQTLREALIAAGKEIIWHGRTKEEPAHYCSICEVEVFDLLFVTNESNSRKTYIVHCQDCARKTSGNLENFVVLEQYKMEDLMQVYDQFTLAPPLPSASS

| molecule.smiles | assay.system | pIC50 |
| --- | --- | --- |
| CC(C)CN(CC(=O)N1CCCCC1)Cc1cc(C(=O)O)ccn1 | UTX (KDM6A) (Homo sapiens) | > 7.00 |
| O=C(O)c1ccnc(CNCC(=O)N2CCC[C@@H]2CN2CCCC2)c1 | UTX (KDM6A) (Homo sapiens) | ≤ 6.00 |
| COCCN1CCN(C(=O)CNCc2cc(C(=O)O)ccn2)CC1 | UTX (KDM6A) (Homo sapiens) | ≤ 6.00 |
| CCN(CC)CCCCNCc1cc(C(=O)Oc2c(C)cccc2C)ccn1 | UTX (KDM6A) (Homo sapiens) | ≤ 6.00 |
| O=C(O)c1ccnc(CNCC2CC2)c1 | UTX (KDM6A) (Homo sapiens) | ≤ 6.00 |
| CCN(CC)CCCCNCc1cc(C(=O)OCCCN(C)C)ccn1 | UTX (KDM6A) (Homo sapiens) | ≤ 6.00 |
| CCN(CCN(C)C)C(=O)CNCc1cc(C(=O)OC)ccn1 | UTX (KDM6A) (Homo sapiens) | > 7.00 |
| CC(C)C[C@H](NCc1cc(C(=O)O)ccn1)C(=O)NC(C)(C)C | UTX (KDM6A) (Homo sapiens) | 6.00 to 7.00 |
| CCN(CCN(C)C)C(=O)CNCc1cc(C(=O)N(C)S(C)(=O)=O)ccn1 | UTX (KDM6A) (Homo sapiens) | ≤ 6.00 |
| CCN(CCN(C)C)C(=O)CNCc1cc(C(=O)O)ccn1 | UTX (KDM6A) (Homo sapiens) | ≤ 6.00 |
